Assay: soluble on expression in E. coli; label from the status in PepcDB or PDB records

item sequence: MLTFVSPVFGAPKKRKWFSKLSGKQLCCFRCVSCLQVEQPSRSHPNYWRNIAREVNKTLKEHSLEANNPINVTDEDSSVFVDTTTDEREEGGPTFIQQSSRVQLDSAEISHSNSMTTDSHSLYQNNSPNSTGMEEEPSDYSVQFSTSWNPNTSWLQFPDLVESADIRRKTQEISKHQKEDVFKYYIDSENNLRPFHDAISPMHIFSKESETQTVSEPSAWENWHQLSQKGNEDSSSLDESLDDEWSEIDRWRPVAVELEGYNPKLTEDTSEEVRIEKNKLSKRREAVAWQKWFSTQQYNLSSELWERRIGVTGKDCDKNTSIYKQWLADMEQGLEP
soluble on expression in E. coli: not soluble

item sequence: MSLKSVIVPAPGKIEIREVETPVINAYQALVKTEMVALCNATDSKLIAGHFPGVDTYPLALGHENAGIVVAVGEKVRNFKVGDRAIGGLISDFGAQGINSGWGGFSEYVVVNDFEVLKEEGLATPEQGCWDSFEIQNSVPAHVQPEEAVISCTWREVLGAFKDFNLTPGKKVIVVGSGPVGLSFVKLGKLFGLGQIDIVDMLPAKLEVARRMGADNGYTPAEISTPEFIAAAGRSYDAVIDAVGLDVVVNSVLPLVKMGGDVCVYGVMTKNPTFDLSKAPYNFDLHMHQWPTRSEEKAAMTTLAQWIEEGTLSASDFITHRFKIEEIEEAFAAVKRGEVLKCVLTEGHHHHHH
soluble on expression in E. coli: not soluble

---

Experiment: soluble on expression in E. coli; label from the status in PepcDB or PDB records

item sequence: MSLVKAVLFDIDGTLLSEKPLIMFILPQVYDELANKLNISRMEARRIFLSEIEKRKGKYEWHDWNFFFRLFSLPFKYEDFIMKYPTKIEVFPGVVEVLKYLKERGYRLGIVTSGPRYQVLKLKVSGIYRYFDVVVTRDDVGSIKPEPRIFLAALEKLKISPKDAVMVGDSLEQDILGAKGVGMKSVWINVGGENGYNLPDFEISSILQLPEVIEDESDIEGHHHHHH
soluble on expression in E. coli: soluble
--
item sequence: MSLGSQGSGLEQSSFQWSPSGRRTGSLYCRVGIGFHLQIYPDGKVNGSHEANMLSVLEIFAVSQGIVGIRGVFSNKFLAMSKKGKLHASAKFTDDCKFRERFQENSYNTYASAIHRTEKTGREWYVALNKRGKAKRGCSPRVKPQHISTHFLPRFKQSEQPELSFTVTVPEKEGHHHHHH
soluble on expression in E. coli: not soluble
--
item sequence: MNSQTTKDIPCFRSYLPDALRLRFEDKLTIRAIAQRLGLSHSTIHTLFQRFLASGIAWPLPDSVSFAQLDAILYANRKKELTEPQIREGSWRKERRTSYSREFKVRLAKQALQPGAVVARIAREHDINDNLLFKWKSQYEDGLLSDDDIQECMPVPVALTDTPEPTRPVTNPFWRNKHDERPEGAPGNVPRCELHLKSGVVKLFDPLTPELLRALIREMKGGIRLEHHHHHH
soluble on expression in E. coli: soluble
--
item sequence: MGHHHHHHSHALKAGKTASGAGEVVRCLSEQSVAISRCAGGAGARLPALLDEQQVNVLLYDMNGCYSRLKELVPTLPQNRKVSKVEILQHVIDYIRDLQLELNSESEVGTPGGRGLPVRAPLSTLNGEISALTAEAACVPADDRILCR
soluble on expression in E. coli: not soluble
